Hey, just so you know, these numbers are from patent US11912703B2.

biological target: human TLR8 (Homo sapiens (Human), UniProt Q9NR97); assay: TLR8 inhibition reporter assay (HEK-Blue SEAP); details: read-out: TLR8 IC50; HEK-Blue cells overexpressing human TLR8, R848 15.9 μM stimulation, SEAP reporter;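 further: SEAP driven by IFN-β minimal promoter with five NF-κB and AP-1 sites, compounds tested 0.05 nM to 50 µM, 22 h incubation, inhibition relative to agonist plus DMSO wells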
Sequence (Q9NR97 27-1041): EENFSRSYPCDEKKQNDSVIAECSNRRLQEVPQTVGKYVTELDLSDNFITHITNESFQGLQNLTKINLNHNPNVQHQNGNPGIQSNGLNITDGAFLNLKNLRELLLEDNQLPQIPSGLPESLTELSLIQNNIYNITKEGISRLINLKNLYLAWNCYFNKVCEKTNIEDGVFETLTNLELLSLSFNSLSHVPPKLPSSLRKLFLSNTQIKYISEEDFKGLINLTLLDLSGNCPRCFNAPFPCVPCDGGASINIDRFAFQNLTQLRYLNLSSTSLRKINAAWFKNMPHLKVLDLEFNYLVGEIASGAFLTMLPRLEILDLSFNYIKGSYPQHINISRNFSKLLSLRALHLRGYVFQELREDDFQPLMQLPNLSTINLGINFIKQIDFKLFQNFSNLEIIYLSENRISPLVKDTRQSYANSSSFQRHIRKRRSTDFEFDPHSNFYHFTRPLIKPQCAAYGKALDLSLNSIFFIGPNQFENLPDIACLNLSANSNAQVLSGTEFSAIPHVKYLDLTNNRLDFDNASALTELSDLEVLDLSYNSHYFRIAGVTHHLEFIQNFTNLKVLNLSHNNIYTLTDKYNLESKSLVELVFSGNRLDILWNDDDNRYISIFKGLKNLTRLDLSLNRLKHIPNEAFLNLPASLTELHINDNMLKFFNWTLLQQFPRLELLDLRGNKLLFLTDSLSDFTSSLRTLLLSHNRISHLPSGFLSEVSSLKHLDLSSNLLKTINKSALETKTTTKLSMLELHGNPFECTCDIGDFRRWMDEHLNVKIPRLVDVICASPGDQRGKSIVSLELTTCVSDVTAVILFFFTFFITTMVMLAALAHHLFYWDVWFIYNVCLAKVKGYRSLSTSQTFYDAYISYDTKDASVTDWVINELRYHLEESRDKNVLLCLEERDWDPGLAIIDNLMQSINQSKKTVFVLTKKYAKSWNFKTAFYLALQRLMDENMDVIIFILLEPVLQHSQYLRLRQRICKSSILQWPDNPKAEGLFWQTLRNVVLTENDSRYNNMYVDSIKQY
# strict inequality: IC50 < 2 nM yields satisfied, everything else yields not satisfied

Known results for compounds:
[
  {
    "compound": "COc1cc(-c2[nH]c3cnc(C4CCC(NCC(C)(C)C)C4)cc3c2C(C)C)cn2ncnc12 (stereo not drawn) [Example 60]",
    "categoryLabel": "satisfied"
  },
  {
    "compound": "COc1cc(-c2[nH]c3cnc(N4CCC(NC(C)C(C)C)CC4)cc3c2C(C)C)cn2ncnc12 (stereo not drawn)",
    "categoryLabel": "satisfied"
  },
  {
    "compound": "Cc1cc(-c2[nH]c3cnc(N4CCC(N(C)CC(N)=O)CC4)c(F)c3c2C(C)C)cn2ncnc12",
    "categoryLabel": "not satisfied"
  },
  {
    "compound": "COc1cc(-c2[nH]c3cnc(N4CCN(C5CCN(C(C)C)CC5)CC4)c(F)c3c2C(C)C)cn2ncnc12",
    "categoryLabel": "satisfied"
  },
  {
    "compound": "Cc1c(-c2[nH]c3cnc(N4CCC(NC(C)C)CC4)c(C)c3c2C(C)C)cn2ncnc2c1C",
    "categoryLabel": "satisfied"
  },
  {
    "compound": "COc1cc(-c2[nH]c3cnc(C4CCC(NCC(C)(C)O)CC4)c(F)c3c2C(C)C)cn2ncnc12 (stereo not drawn) [Example 74]",
    "categoryLabel": "satisfied"
  },
  {
    "compound": "CNCC(=O)N1CCC(c2ncc3[nH]c(-c4cc(C)nc(C)c4)c(C(C)C)c3c2F)CC1",
    "categoryLabel": "not satisfied"
  },
  {
    "compound": "Cc1cc(-c2[nH]c3cnc(C4CCC(NC5CCOCC5)CC4)c(F)c3c2C(C)C)cn2ncnc12 (stereo not drawn) [Example 82]",
    "categoryLabel": "satisfied"
  },
  {
    "compound": "Cc1c(-c2[nH]c3cnc(N4CC5(CN(CCS(C)(=O)=O)C5)C4)c(F)c3c2C(C)C)cn2ncnc2c1C",
    "categoryLabel": "not satisfied"
  },
  {
    "compound": "CCN(C)C1CCN(c2ncc3[nH]c(-c4cn5ncnc5c(C)c4C)c(C(C)C)c3c2C)CC1",
    "categoryLabel": "satisfied"
  }
]

Identify whether the compound COc1cc(-c2[nH]c3cnc(N4CCN(CC(C)(C)O)CC4)c(F)c3c2C(C)C)cn2ncnc12 records IC50 below 2 nM.
satisfied

Identify whether the compound COc1cc(-c2[nH]c3cnc(N4CCC(NC5(C)COC5)CC4)c(F)c3c2C(C)C)cn2ncnc12 records IC50 below 2 nM.
satisfied

Identify whether the compound CCN(C)C1CCC(c2cc3c(C(C)C)c(-c4cc(OC)c5ncnn5c4)[nH]c3cn2)CC1 (stereo not drawn) [Example 331] records IC50 below 2 nM.
not satisfied

Identify whether the compound Cc1cc(-c2[nH]c3cnc(C4CCN(CCS(C)(=O)=O)CC4)c(F)c3c2C(C)C)cn2ncnc12 records IC50 below 2 nM.
not satisfied
